Consider the following compounds; for each one, report its normalized growth.
# TEST METHOD NOTES: chemical genetic growth profiling, strain panel (AID 1159580);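 also: tested at 20 µM; growth read once vehicle control cultures reached saturation at 30 °C; 1 = growth at the plate median or of vehicle wells; lower values mean less growth of the strain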
# CONDITIONS: S. cerevisiae deletion strains, growth OD, locus YMR231W, strain pep5, stronger effect = lower value
In all, about 5,500 compounds went through this assay and about 2,000 (36%) were called active. Not shown: some 18% with an inconclusive outcome. This is one part of the list.
No unit in the answer, only the number.

Input COc1cc([C@@H]2c3cc4c(cc3[C@H](O)[C@H]3COC(=O)[C@H]23)OCO4)cc(OC)c1OC . Output normalized growth: 1.01

// field: normalized growth; key: O=C(O)c1cccnc1C(=O)O ; value = 0.996

response.value for COc1cc(OC)c2c(OC)c(-c3ccc4c(c3)OCO4)c(=O)oc2c1 (field: normalized growth) = 0.973

Record summary for CON : reported normalized growth = 0.996

Input COc1ccc(-c2c(O)c3c(OC)c4c(cc3oc2=O)OC(C)(C)C=C4)cc1 . Output normalized growth: 0.95

Item: O=C(O)[C@H]1/C(=C/CO)O[C@@H]2CC(=O)N21 | normalized growth: 0.983
